# EXPERIMENT: qHTS assay to identify small molecule that activate the aryl hydrocarbon receptor (AhR) signaling pathway - cell viability counter screen (AID 743086); further: nearly all actives have a fitted effect of over 45% in size
# MEASUREMENT CONDITIONS: HepG2-AhR-luc viability, CellTiter-Fluor, 24 h; series mostly up to 70.3 µM
# From the text: U.S. Tox21 Program National Center for Advancing Translational Sciences [NCATS] NIH Chemical Genomics Center [NCGC] U.S. Environmental Protection Agency [EPA] National Institutes of Environmental Health Sciences [NIEHS] National Toxicology Program [NTP] U.S. Food and Drug Administration [FDA] Tox21 Assay overview: The Aryl hydrocarbon Receptor (AhR), a member of the family of basic helix-loop-helix transcription factors, is crucial to adaptive responses to environmental changes. […]
Inconclusive results are not listed. Activity calls are given as the source filed them. The call rests on the fitted dose curve; in most records, active means well fitted cell-killing curve with a large enough effect in the repeat runs; inconclusive means weak or mixed curves, or effect the other way; inactive means flat fitted curve, though single readings scatter.
Outcome codes: active, inactive

| COMPOUND | CLASS |
| --- | --- |
| NCCO/C=C/[C@H](N)C(=O)O | inactive |
| C[S+](CC[C@H](N)C(=O)O)C[C@H]1O[C@@H](n2cnc3c(N)ncnc32)[C@H](O)[C@@H]1O (stereo partly specified) | inactive |
| CC(=O)[C@]1(O)Cc2c(O)c3c(c(O)c2[C@@H](O[C@H]2C[C@H](N)[C@H](O)[C@H](C)O2)C1)C(=O)c1ccccc1C3=O | active |
| C=CC1=C(C(=O)O)N2C(=O)[C@@H](NC(=O)/C(=N/OCC(=O)O)c3csc(N)n3)[C@H]2SC1 (stereo in doubt) | inactive |
| C=CC[N@@+]12CC[C@@]34c5ccccc5N5/C=C6/[C@H]7C[C@H]8[C@@]9(CC[N@@+]8(CC=C)C/C7=C/CO)c7ccccc7N(/C=C(/[C@@H](C[C@@H]31)/C(=C\CO)C2)[C@H]54)[C@@H]69 | inactive |
| CCC[C@@H]1C[C@@H](C(=O)N[C@@H]([C@H]2O[C@H](SC)[C@H](OP(=O)(O)O)[C@@H](O)[C@H]2O)[C@H](C)Cl)N(C)C1 | inactive |
